assay: Population pharmacokinetic modeling (NONMEM) of intravenous colistin sulfate from plasma concentrations in critically ill patients; type: in vivo, human; settings: human, plasma, iv; mean ± SD, MAP Bayesian estimate per patient with the final PK model; SD; read-out: AUC (AUC0-24 at steady state, AUC0-24,ss)
Counter-ions that a name gives are not always drawn. Positions of bridges follow the written chain, without caps; N, C: chain ends. Non-standard residues stand in square brackets, D forms with d. Residues, ends and D or L forms follow the SMILES beside them. *: point of attachment. X1 = CC[C@H](C)CCCCC(=O)*; Dab = NCC[C@H](N)C(=O)O
measured.parameter: AUC(0-t) (ng·h/mL)
Report the value in ng·h/mL with no unit label.

[Q] Answer with reported AUC(0-t) of CC[C@H](C)CCCCC(=O)N[C@@H](CCN)C(=O)N[C@H](C(=O)N[C@@H](CCN)C(=O)N[C@H]1CCNC(=O)[C@H]([C@@H](C)O)NC(=O)[C@H](CCN)NC(=O)[C@H](CCN)NC(=O)[C@H](CC(C)C)NC(=O)[C@@H](CC(C)C)NC(=O)[C@H](CCN)NC1=O)[C@@H](C)O [colistin sulfate] (X1-[Dab]T[Dab][Dab][Dab][dL]L[Dab][Dab]T; lactam 4-C)
[A] 39400
